Entry source: patent US7429607B2

targetOfAssay: human cloned 5-HT2B receptors (Homo sapiens)
Sequence (P41595 whole entry): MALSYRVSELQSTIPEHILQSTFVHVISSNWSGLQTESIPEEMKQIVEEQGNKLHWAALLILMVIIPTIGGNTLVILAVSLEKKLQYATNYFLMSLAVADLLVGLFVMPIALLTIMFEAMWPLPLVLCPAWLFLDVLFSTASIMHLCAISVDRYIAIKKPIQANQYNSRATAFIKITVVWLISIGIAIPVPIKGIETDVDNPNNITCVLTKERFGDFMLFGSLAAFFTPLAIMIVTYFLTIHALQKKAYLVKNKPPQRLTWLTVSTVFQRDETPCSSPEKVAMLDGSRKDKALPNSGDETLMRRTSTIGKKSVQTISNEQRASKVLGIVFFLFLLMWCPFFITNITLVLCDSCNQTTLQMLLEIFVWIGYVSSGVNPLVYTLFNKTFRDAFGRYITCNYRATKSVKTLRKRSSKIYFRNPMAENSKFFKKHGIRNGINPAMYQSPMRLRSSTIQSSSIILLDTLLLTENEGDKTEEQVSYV
testProtocol: Human cloned 5-HT2B cell-based functional assay (Fluo-4, CHO.K1 cells)
studyConditions: inhibition of 5-HT response, CHO.K1 cells expressing cloned 5-HT2B, Fluo-4 AM
pIC50: −log10 of the molar value.

| chemSmiles | pIC50 |
| --- | --- |
| Nc1nc(-c2ccc3ccccc3c2)co1 | > 5.00 |
| Cc1nc(N)oc1-c1cccc2ccccc12 | > 7.00 |
| CNc1nc(-c2cccc3ccccc23)co1 | > 5.00 |
| COc1ccc2ccccc2c1-c1coc(NC(C)=O)n1 | > 6.00 |
| Nc1nc(-c2cccc3ccccc23)co1 | > 7.00 |
| CC(C)c1nc(N)oc1-c1cccc2ccccc12 | > 8.00 |

---

targetOfAssay: cloned human 5-HT2C receptor (Homo sapiens, UniProt P28335)
Construct: purchased Euroscreen; host or cells: CHO-K1 cells
Sequence (P28335 33-458): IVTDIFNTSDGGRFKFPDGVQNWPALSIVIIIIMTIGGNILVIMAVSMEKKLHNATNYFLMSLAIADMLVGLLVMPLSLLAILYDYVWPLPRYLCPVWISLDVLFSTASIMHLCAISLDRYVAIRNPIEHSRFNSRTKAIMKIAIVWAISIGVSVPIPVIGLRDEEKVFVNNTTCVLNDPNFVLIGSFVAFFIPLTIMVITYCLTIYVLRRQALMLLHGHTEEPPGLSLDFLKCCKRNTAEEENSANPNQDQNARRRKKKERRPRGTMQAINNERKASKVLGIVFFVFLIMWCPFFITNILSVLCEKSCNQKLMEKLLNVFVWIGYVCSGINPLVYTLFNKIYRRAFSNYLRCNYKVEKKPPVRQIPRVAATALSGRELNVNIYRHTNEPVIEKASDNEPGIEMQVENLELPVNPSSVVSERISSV
testProtocol: Human 5-HT2C receptor binding assay ([3H]mesulergine, CHO-K1 membranes)
studyConditions: displacement of [3H]mesulergine (1 nM), read-out: 5-HT2C pKi (converted)
Reported Ki is given for each of the following compounds.
parameterMeasured: Ki

| compound | reportedResult |
| --- | --- |
| COc1ccc(-c2coc(N)n2)c2ccccc12 | > 10 µM |
| Nc1nc(-c2cccc3ccc(Br)cc23)co1 | > 1 µM |
| Nc1nc(-c2ccc(F)c3ccccc23)co1 | > 1 µM |
| CCOc1ccc2ccccc2c1-c1coc(N)n1 | > 1 µM |
| Cc1nc(N)oc1-c1cccc2ccccc12 | > 10 µM |
| Cc1ccc2ccccc2c1-c1coc(N)n1 | > 1 µM |
| Nc1nc(-c2cccc3sccc23)co1 [Compound 15, 4-benzo[b]thiophen-4-yl-oxazol-2-ylamine] | > 1 µM |
| N#Cc1ccc2cccc(-c3coc(N)n3)c2c1 | > 10 µM |
| Nc1nc(-c2cccc3ccccc23)co1 | > 1 µM |
| NC(=O)c1ccc2cccc(-c3coc(N)n3)c2c1 | > 10 µM |
| CC(=O)Nc1nc(-c2cccc3ccccc23)co1 | > 1 µM |
